Target: Cytochrome P450 1A2 (Homo sapiens) (UniProt P05177)
Sequence (P05177 whole entry, looked up): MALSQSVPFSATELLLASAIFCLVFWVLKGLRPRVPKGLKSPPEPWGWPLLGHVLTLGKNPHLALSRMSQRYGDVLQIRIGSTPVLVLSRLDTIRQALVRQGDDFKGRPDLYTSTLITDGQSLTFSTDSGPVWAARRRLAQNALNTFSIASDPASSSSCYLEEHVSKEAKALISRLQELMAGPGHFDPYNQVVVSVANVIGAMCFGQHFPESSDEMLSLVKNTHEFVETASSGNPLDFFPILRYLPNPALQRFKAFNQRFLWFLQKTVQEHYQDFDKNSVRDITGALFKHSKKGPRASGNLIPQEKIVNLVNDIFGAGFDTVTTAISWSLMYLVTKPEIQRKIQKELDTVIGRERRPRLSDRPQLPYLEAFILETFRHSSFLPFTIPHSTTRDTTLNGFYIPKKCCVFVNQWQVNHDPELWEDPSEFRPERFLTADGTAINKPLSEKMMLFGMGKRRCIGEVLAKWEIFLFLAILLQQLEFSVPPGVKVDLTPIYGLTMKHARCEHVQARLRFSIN
Experiment: Cytochrome panel assay with activity outcomes
Details: recombinant CYP, pro-luciferin dealkylation, luminescence, p450-cyp1a2; series mostly up to 57.1 µM
Among all 16,000 compounds or so, about 5,700 (36%) were called active. About 24% were inconclusive and are not listed. The call rests on the fitted dose curve; in most records, active means well fitted curve in the direction sought with a large enough effect; inconclusive means small, poorly fitted or top-dose-only effect, or effect the other way; inactive means no such curve, though single readings can be large or run the other way. The list shows a part of the results.
# valid calls are active, inactive; nothing else

Take a look at these entries with their results.
c1ccc(CN2c3ccccc3-c3nc4ccccc4n3C2c2ccccn2)cc1 (configuration not stated) | active
COC(=O)CSc1ccc2nnc(-c3ccc(F)cc3)n2n1 | active
Cc1noc(C)c1-c1ccc2ncnc(N(C)Cc3ccco3)c2c1 | active
CCOC(=O)C1CCN(C(=O)C2CCN(c3nc4ccc(OC)cc4s3)CC2)CC1 | inactive
N#Cc1ccc(-c2ccc(F)cc2)nc1Oc1ccc(Cl)c(Cl)c1 | active
COc1ccc(-c2cc(C(=O)Nc3nc4c(C)cccc4s3)c3ccccc3n2)cc1OC | inactive
C[C@@H](NCc1cc(Br)cc2[nH]c(=O)c(=O)[nH]c12)P(=O)(O)O | inactive
COc1cccc(NC(=O)c2cc(-c3cccnc3)nc3c(Cl)cccc23)c1 | active
CC(C)CC(=O)N[C@H](C(=O)N[C@H](C(=O)N[C@@H](CC(C)C)[C@H](O)CC(=O)N[C@@H](C)C(=O)N[C@@H](CC(C)C)[C@H](O)CC(=O)O)C(C)C)C(C)C | inactive
CN(C)c1ncc2nc(-c3cccs3)c(=O)n(C[C@H]3CCCO3)c2n1 | active

Lookup: For this compound, state the assay outcome: CN(C)c1ccc(-c2cncnc2NCc2cccnc2)cc1
Found: active

Lookup: For this compound, state the assay outcome: COCC(=O)N1CCC[C@@]2(CCN(Cc3ccccc3OC)C2)C1
Found: inactive

Lookup: For this compound, state the assay outcome: C=CCOc1ccccc1OC[C@H](O)CNC(C)C
Found: active

# credit: PubChem BioAssay AID1851
